molecular target: human Gal-1 (hGal-1); test: Competitive binding assay: binding of biotinylated hGal-1 to microplate-adsorbed asialofetuin (ASF); settings: Activities on hGal-1; mean values of several measurements
Sequence (P09382 2-135 limits assumed): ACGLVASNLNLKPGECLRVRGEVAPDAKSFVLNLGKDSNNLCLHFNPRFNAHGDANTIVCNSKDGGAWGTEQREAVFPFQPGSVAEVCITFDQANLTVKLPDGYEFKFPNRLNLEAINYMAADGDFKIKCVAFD
Entries annotated with measured IC50
Please format your answer as a value with the unit trailing.

O=c1[nH]c2ccc(C3=NOC(C[C@H]4O[C@H](CO)[C@H](O)[C@H](n5cc(-c6cc(F)c(F)c(F)c6)nn5)[C@H]4O)C3)cc2o1 (stereo partly drawn): 4.77 µM
CO[C@@H]1[C@@H](n2cc(-c3ccc(Cl)c(F)c3F)nn2)[C@@H](O)[C@@H](CO)O[C@@H]1Cc1cc(C(C)(C)CO)no1: 1.05 µM

Then this molecule:
Input: What value of IC50 has been recorded for this entry: CO[C@@H]1[C@@H](n2cc(-c3ccc(Cl)c(F)c3F)nn2)[C@@H](O)[C@@H](CO)O[C@@H]1CC1CC(C(C)(C)C)=NO1 (stereo partly drawn)
Output: 1.56 µM
